Catalogue of compounds with associated viability
# Measurement protocol: drug combination growth inhibition, ovarian cancer – cell-based, oncology-focused library, rucaparib conditional, profiling panel (AID 1508598)
# Condition: patient-derived ovarian cancer cells, CellTiter-Glo viability, 144 h; at 0.00488 µM; OCI-P5x cells; with rucaparib 20 µM; stronger effect = lower value; 100% = cells with rucaparib alone
Give the value in % but do not write % after it.

These solved cases illustrate the format of a correct answer.
CNC(=O)c1ccc(C)c(-n2c(C)cc(OCc3ccc(F)cc3F)c(Br)c2=O)c1    112
C[C@@H]1CN(CC(=O)Nc2ccc3c(c2)Cc2cccc(-c4cc(=O)cc(N5CCOCC5)o4)c2S3)C[C@H](C)O1    108
Cc1ccc(C(=O)Nc2ccc(CN3CCN(C)CC3)c(C(F)(F)F)c2)cc1C#Cc1cnc2cccnn12    97
CN1CCN(c2cccc(Nc3nc4c(-c5ccc(S(C)(=O)=O)cc5)cccn4n3)c2)CC1    107
Cc1cn(-c2cc(NC(=O)c3ccc(C)c(Nc4nccc(-c5cccnc5)n4)c3)cc(C(F)(F)F)c2)cn1    103
c1ccc2c(CCNc3ccc(Nc4ccncc4)cc3)c[nH]c2c1    112
CCCCc1nc2cc(/C=C/C(=O)NO)ccc2n1CCN(CC)CC    95.5
NC(=O)Nc1cc(-c2cccc(F)c2)sc1C(=O)N[C@H]1CCCNC1    56.6

### Prompt Data request, read-out viability, for "NC1(c2ccc(-c3nc4ccn5c(=O)[nH]nc5c4cc3-c3ccccc3)cc2)CCC1"
### Response 103

----------
# Measurement protocol: drug combination growth inhibition, ovarian cancer – cell-based, oncology-focused library, rucaparib conditional, profiling panel (AID 1508598)
# Condition: patient-derived ovarian cancer cells, CellTiter-Glo viability, 144 h; at 0.0781 µM; OCI-C5x cells; with rucaparib 10 µM; 100% = cells with rucaparib alone
Active and inactive are the calls of the source.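 How the source made its calls: active means normalized viability below 100% at a tested concentration; inactive means the rest.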
Returns: one label drawn from active, inactive

CCOc1ccn(-c2ccc(F)cc2)c(=O)c1C(=O)Nc1ccc(Oc2ccnc(N)c2Cl)c(F)c1    inactive

### Prompt Answer briefly: the call reported for "Nc1cc(C(F)(F)F)c(-c2cc(N3CCOCC3)nc(N3CCOCC3)n2)cn1" in this assay.
### Response inactive

### Prompt Answer briefly: the call reported for "Cc1cnc(-c2ccccc2C(C)C)nc1NCc1ccc(-n2ccnn2)cc1" in this assay.
### Response inactive

### Prompt Answer briefly: the call reported for "Cc1cccc(-c2nn3c(c2-c2ccnc4ccc(C(N)=O)cc24)CCC3)n1" in this assay.
### Response inactive

### Prompt Answer briefly: the call reported for "Cc1cc(Nc2cc(N3CCN(C)CC3)nc(/C=C/c3ccccc3)n2)n[nH]1" in this assay.
### Response inactive

### Prompt Answer briefly: the call reported for "CNC(=O)c1ccc(C)c(-n2c(C)cc(OCc3ccc(F)cc3F)c(Br)c2=O)c1" in this assay.
### Response inactive

----------
# Measurement protocol: viability loss with induced miR-34 in A549 – imaging, A549 dox-inducible miR-34, nuclei and caspase counts, primary screen (AID 1347080)
# Condition: A549 miR-34 inducible, Hoechst nuclei count, 48 h; measured here: total cells without miR-34 induction
Catalogue of molecules with associated cell count
In your answer, state the number alone without any accompanying words.

These solved cases illustrate the format of a correct answer.
Cc1c(CC(C)(C)C(=O)O)n(Cc2ccc(Cl)cc2)c2ccc(F)cc12    8630
CCCCC[C@@H](O)/C=C/[C@H]1C[C@H]2C[C@@H]([C@@H]1C/C=C\CCCC(=O)O)C2(C)C    5970
Nc1nnc(Sc2ncc([N+](=O)[O-])s2)s1    3290

### Prompt Data request, read-out cell count, for "O=C(Cc1ccc(-c2ccc(OCCN3CCOCC3)cc2)cn1)NCc1ccccc1"
### Response 1260

### Prompt Data request, read-out cell count, for "CCOC(=O)c1ncc2[nH]c3cccc(OC(C)C)c3c2c1C"
### Response 5540

### Prompt Data request, read-out cell count, for "CCCCCCCCNC(=O)Cc1c(C)n(C(=O)c2ccc(Cl)cc2)c2ccc(OC)cc12"
### Response 5490

### Prompt Data request, read-out cell count, for "Cc1c(C(=O)NC2CCCCC2)sc2nc3ccc(N)cc3n12"
### Response 6720

### Prompt Data request, read-out cell count, for CC1(C)CC(=O)C(C2C3=C(CC(C)(C)CC3=O)Oc3ccccc32)C(=O)C1 (configuration not stated)
### Response 10400

### Prompt Data request, read-out cell count, for "CNC(=O)c1ccccc1Nc1nc(Nc2ccc(N3CCOCC3)cc2OC)ncc1Cl"
### Response 1730

### Prompt Data request, read-out cell count, for "C[C@@H](C(=O)O)c1ccc(-c2ccccc2)c(F)c1"
### Response 6360

### Prompt Data request, read-out cell count, for "Nc1cccc(-c2cc3c(Oc4cccc(O)c4)ncnc3[nH]2)c1"
### Response 1240

----------
# Measurement protocol: viability loss in pontine glioma line – cell-based, SU-DIPG-XVII, MIPE5.0, CellTiter-Glo, qHTS, dose response (AID 1347060);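 on AC50: cells exposed to compound for 48 hours before viability readout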
# Condition: CellTiter-Glo ATP luminescence
Results filed as inconclusive are left out. Active and inactive are the calls of the source. No cut-off is given here; in the data, nearly all actives have AC50 up to about 26 µM.
Returns: one label drawn from active, inactive

CNC(=O)[C@@H](NC(=O)[C@H](CC(C)C)[C@H](O)C(=O)NO)C(C)(C)C    active
Clc1ccc(C(c2ccc(Cl)cc2)n2cc[n+](CC(OCc3ccc(Cl)cc3Cl)c3ccc(Cl)cc3Cl)c2)cc1 (configuration not stated)    active
Cc1cccc(-c2nn3c(c2-c2ccnc4ccc(C(N)=O)cc24)CCC3)n1    inactive
CN1CCN(c2ccc(Nc3ncc4cc(C#N)c(=O)n(C5CCCC5)c4n3)cc2)CC1    active

Now let's try a different one.
### Prompt Answer briefly: the call reported for "COc1ccc(S(=O)(=O)N(C(C)=O)c2ccccc2/C=C/c2cc[n+]([O-])cc2)cc1" in this assay.
### Response active

----------
Catalogue of compounds with associated remaining activity
# Test system: Aerobactin synthetase IucA (Klebsiella pneumoniae)
# Measurement protocol: inhibition of K. pneumoniae IucA enzyme – biochemical, Tocris library, absorbance (AID 1345561);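 further: 100% = enzyme without compound and 0% = no enzyme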
# Condition: purified IucA enzyme assay, absorbance (OD) read-out; stronger effect = lower value; concentration not given here
Give the value in % but do not write % after it.

These solved cases illustrate the format of a correct answer.
Cc1ccc(NC2=CC(=O)c3sc(C)nc3C2=O)cc1    117
CC(=O)N1CCN(C)CC1    118
CCc1cc(C2NNC(C)C2c2ccc3c(c2)OCCO3)c(O)cc1O (stereo not drawn)    92.2
C=CCN1CCN(c2nc3ccccc3nc2C#N)CC1    112

### Prompt Data request, read-out remaining activity, for "Cc1cc(C)c(S(=O)(=O)Nc2cccc(C(F)(F)F)c2)c(C)c1"
### Response 107

----------
# Measurement protocol: galactose survival enhancers in mitochondrial complex I cybrids – cell-based, galactose medium, ATP luminescence, primary screen (AID 1645843);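 further: positive z means more ATP and so rescue of galactose-driven cybrid death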
# Condition: complex I mutant cybrid cells, 72 h, stronger effect = higher value
Property label: z-score
In your answer, state the number alone without any accompanying words.

These solved cases illustrate the format of a correct answer.
N#C/C(=C\c1ccc(-c2cc(Cl)ccc2Cl)o1)C(=O)Nc1cccc2ncccc12    0.46
COC(=O)c1sccc1S(=O)(=O)Nc1ccc(Nc2ccccc2)cc1OC    -0.495
COc1cc2c(cc1C(F)(F)F)N(C(=O)Nc1cc(F)cc(-c3cccnc3)c1)CC2    -0.61
Cc1cc(C)cc(C(=O)N(C)[C@H](Cc2ccc(-c3ccccc3)cc2)C(=O)N[C@@H](Cc2c[nH]c3ccccc23)C(=O)O)c1    7.92
CCCc1c(OCC(O)COc2ccc3c(=O)cc(C(=O)O)oc3c2CCC)ccc(C(C)=O)c1O (centres undefined)    3.91

### Prompt Data request, read-out z-score, for Cc1nnc(C(C)C)n1C1CC2CCC(C1)N2CCC(NC(=O)C1CCC(F)(F)CC1)c1ccccc1 (centres undefined)
### Response 0.505

### Prompt Data request, read-out z-score, for "Cc1cc(C)c(S(=O)(=O)Nc2cccc(C(F)(F)F)c2)c(C)c1"
### Response -0.605

### Prompt Data request, read-out z-score, for "CSc1cc2c(cc1C(F)(F)F)N(C(=O)Nc1cccnc1)CC2"
### Response 0.05

### Prompt Data request, read-out z-score, for "CS(=O)(=O)c1cccc(CNc2nc(Nc3ccc4c(c3)CCC(=O)N4)ncc2C(F)(F)F)c1"
### Response -0.545

----------
# Measurement protocol: viability loss in pontine glioma line – cell-based, SU-DIPG-XIII, MIPE5.0, CellTiter-Glo, qHTS, dose response (AID 1347064);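 on AC50: cells exposed to compound for 48 hours before the viability read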
# Condition: CellTiter-Glo ATP luminescence
Records with an inconclusive call do not appear. The source made the active and inactive calls. Cut-off not given; nearly all actives show AC50 up to about 23 µM.
Property label: AC50

These solved cases illustrate the format of a correct answer.
CC(N[C@H]1CCCC[C@@H]1NC(=O)c1ccc(Cl)cc1)c1cccc2ccccc12 (some centres undefined)    7.42 µM (active)
Cc1nnc(C(C)C)n1C1CC2CCC(C1)N2CCC(NC(=O)C1CCC(F)(F)CC1)c1ccccc1 (centres undefined)    inactive
CC(C)c1c(-c2ccccc2)nc2c(C#N)c[nH]n2c1=O    inactive
COc1ccccc1C(=O)Nc1cc2c(cc1N1CCNC[C@H]1C)n(C)c(=O)n2C    inactive
CN1C/C=C/CCOc2cccc(c2)-c2ccnc(n2)Nc2cccc(c2)C1    0.132 µM (active)
COc1cc(OC)cc(N(CCNC(C)C)c2ccc3ncc(-c4cnn(C)c4)nc3c2)c1    0.0661 µM (active)
c1cncc(CN2CCC(n3ncc4c(N5CCOCC5)nc(-c5ccc6[nH]ccc6c5)nc43)CC2)c1    16.6 µM (active)
CC[C@@H]1C(=O)N(C)c2cnc(Nc3ccc(C(=O)NC4CCC(N5CCN(CC6CC6)CC5)CC4)cc3OC)nc2N1C(C)C (some centres undefined)    5.9 µM (active)

Here's the next entry for you.
### Prompt Data request, read-out AC50, for "O=C(c1ccc(NS(=O)(=O)c2cccc3cccnc23)cc1)N1CCN(CC2CC2)CC1"
### Response inactive
